Value source: patent EP4678638A1

Target: human Cereblon WT GST-tagged protein (Homo sapiens, UniProt Q96SW2)
Construct: purchased CISBIO 64BDCRBNPEH
Sequence (Q96SW2 whole entry): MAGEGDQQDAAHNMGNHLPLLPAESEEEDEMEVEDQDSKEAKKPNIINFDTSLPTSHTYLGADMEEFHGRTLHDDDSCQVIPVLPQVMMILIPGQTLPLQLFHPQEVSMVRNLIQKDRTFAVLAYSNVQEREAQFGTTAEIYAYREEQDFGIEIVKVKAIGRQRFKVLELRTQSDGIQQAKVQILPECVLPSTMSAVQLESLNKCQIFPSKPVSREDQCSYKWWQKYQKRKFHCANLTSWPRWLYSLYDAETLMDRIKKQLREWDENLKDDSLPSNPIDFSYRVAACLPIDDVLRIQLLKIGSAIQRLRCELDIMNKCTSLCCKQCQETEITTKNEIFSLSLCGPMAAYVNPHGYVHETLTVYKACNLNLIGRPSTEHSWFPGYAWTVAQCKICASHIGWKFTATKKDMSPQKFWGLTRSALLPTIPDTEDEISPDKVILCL
Assay: CRBN binding, HTRF (CEREBLON BINDING kit)
Conditions: Table II-2, CRBN binding screening, HTRF; at 2 µM; read-out: Inhibition rate (%) at 2 µM
measured-parameter: inhibition at 2 µM

CNC(=O)c1ccccc1Nc1cc(Nc2ccc(N3CCC(N(C)Cc4ccc(C5CCC(=O)NC5=O)cc4)CC3)cc2OC)ncc1C(F)(F)F (stereo not shown): 40 to 53%
Cn1cc(-c2cc(S(C)(=O)=O)ccc2OCc2ccc(N3CCC(=O)NC3=O)cc2)c2cc[nH]c2c1=O: 53 to 60%
COc1cc2nn(C3CCN(Cc4cncc(N5CCC(=O)NC5=O)c4)CC3)cc2cc1NC(=O)c1cccc(C(F)(F)F)n1: 53 to 60%
CC(C)(O)c1cc2nc(C3CCN(Cc4cc(N5CCC(=O)NC5=O)ncc4F)CC3)oc2cc1NC(=O)c1cccc(C(F)(F)F)n1: 60 to 80%
